Ref: patent US20240092799A1

- testTarget: MNK1 (Homo sapiens (Human), UniProt Q9BUB5)
- Sequence (Q9BUB5 other isoform, or with tags, fused parts or gaps isoform Q9BUB5-2): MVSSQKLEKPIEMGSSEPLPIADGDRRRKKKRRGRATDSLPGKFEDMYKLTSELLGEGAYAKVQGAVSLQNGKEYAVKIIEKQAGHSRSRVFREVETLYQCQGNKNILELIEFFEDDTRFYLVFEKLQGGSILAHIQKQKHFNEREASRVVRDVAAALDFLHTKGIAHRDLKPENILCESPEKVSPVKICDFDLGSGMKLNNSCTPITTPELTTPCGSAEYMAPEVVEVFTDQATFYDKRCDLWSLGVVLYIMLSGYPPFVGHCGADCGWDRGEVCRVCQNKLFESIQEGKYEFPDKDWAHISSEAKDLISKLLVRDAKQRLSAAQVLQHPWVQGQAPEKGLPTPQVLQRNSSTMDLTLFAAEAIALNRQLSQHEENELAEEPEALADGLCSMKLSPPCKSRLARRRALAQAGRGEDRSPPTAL
observationType: IC50

>>> observedvalue("Nc1cc(Nc2c(=O)n3c(c4ccccc24)C(=O)NC32CCCCC2)ncn1")
"> 1 µM"

Now take the following molecule into account.
Incoming: Give a short answer stating reported IC50 for Cc1cc(Nc2cc(N)ncn2)c(=O)n2c1C(=O)N[C@@]21C[C@H]2CC[C@@H]1C2 .
Outgoing: 0.0001 to 0.01 µM

---

The following molecules have recorded pIC50 on MNK2 (Homo sapiens (Human), UniProt Q9HBH9).
Sequence (Q9HBH9 whole entry): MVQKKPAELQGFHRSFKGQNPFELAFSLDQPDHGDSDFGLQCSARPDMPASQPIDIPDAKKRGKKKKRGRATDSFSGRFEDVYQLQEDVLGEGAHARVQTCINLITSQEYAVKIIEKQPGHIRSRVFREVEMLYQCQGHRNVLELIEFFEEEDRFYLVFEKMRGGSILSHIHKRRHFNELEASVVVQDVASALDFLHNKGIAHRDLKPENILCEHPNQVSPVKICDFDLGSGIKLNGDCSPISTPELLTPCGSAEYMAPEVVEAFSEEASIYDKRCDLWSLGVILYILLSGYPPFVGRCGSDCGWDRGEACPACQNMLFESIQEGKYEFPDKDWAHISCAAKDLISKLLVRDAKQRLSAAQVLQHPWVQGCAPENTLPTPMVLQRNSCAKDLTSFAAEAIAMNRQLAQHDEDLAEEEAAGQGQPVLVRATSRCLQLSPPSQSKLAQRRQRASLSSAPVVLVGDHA
pIC50: −log10 of the molar value.

Check out these entries, answers already filled in.
>>> observedvalue("Cc1cc(Nc2cc(Nc3ccncc3)ncn2)[n+]([O-])c2c1C(=O)NC21CCCCC1 [Compound XXIX-AK]")
"7.00 to 8.00"
>>> observedvalue("COc1c(N)ncnc1Nc1cc2c(s1)C(=O)NC21CCCCC1 [Compound X-C]")
"8.00 to 10.00"
>>> observedvalue("Nc1cc(Nc2cc3c(s2)C(=O)NC32CCCC2)ncn1 [Compound X-E]")
"7.00 to 8.00"
>>> observedvalue("Nc1cc(Nc2sc3c(c2Cl)C2(CCCCC2)NC3=O)ncn1 [Compound XXI]")
"6.00 to 7.00"

Incoming: Give a short answer stating reported pIC50 for Cc1cc(Nc2cc(Nc3cc[nH]n3)ncn2)[n+]([O-])c2c1C(=O)NC21CCCCC1 [Compound XXIX-AS] .
Outgoing: 8.00 to 10.00

---

The following molecules have recorded IC50 on MNK2 (Homo sapiens (Human)).

Check out these entries, answers already filled in.
>>> observedvalue("Cc1cc(Nc2ccnc(N[C@H]3CCOC3)c2)[n+]([O-])c2c1C(=O)NC21CCCCC1")
"100 to 1000 nM"
>>> observedvalue("Cc1cc(Nc2cc(NC(=O)C3CCCC3)ncn2)[n+]([O-])c2c1C(=O)NC21CCCCC1")
"0.1 to 10 nM"
>>> observedvalue("O=C1NC2(CCCCC2)c2cc(Nc3cc(NC(=O)C4CCOC4)ncn3)sc21 (centres unmarked)")
"0.1 to 10 nM"

Parameter requested: IC50. Apply to each item below.
1. NC1CCN(c2cc(Nc3cc4c(s3)C(=O)NC43CCCCC3)ncn2)C1 (centres unmarked)
2. Cc1cc(Nc2cc(N)ncn2)c(=O)n2c1C(=O)N[C@@]21C[C@H]2CC[C@@H]1C2
3. Cc1cc(-c2cc(-c3cc(N)ncn3)no2)c(=O)n2c1C(=O)NC21CCCCC1
4. O=C1NC2(CCCCC2)c2nc(Nc3ccnc(Nc4ccccn4)c3)sc21
5. O=C1NC2(CCCCC2)c2cc(Nc3cc(N[C@H]4CCC[C@@H]4O)ncn3)sc21

Outgoing:
> 1000 nM
0.1 to 10 nM
> 1000 nM
10 to 100 nM
10 to 100 nM

---

- Tested on: TMD-8 cell p-IF4E
- methodDescription: p-eIF4E Signaling Cellular Assay (CisBio HTRF) in TMD-8 cells
- Type: cell-based
- setupConditions: Homo sapiens, TMD8, 40 min, 40 min treatment
pIC50: −log10 of the molar value.
What pIC50 was measured for each of the following?

>>> observedvalue("Cc1cc(Nc2cc(N[C@H]3C[C@@H](O)C3)ncn2)[n+]([O-])c2c1C(=O)NC21CCCCC1")
"7.00 to 8.00"

Parameter requested: pIC50. Apply to each item below.
1. O=C1NC2(CCCCC2)c2nc(Nc3cc(NC(=O)C4CCCC4)ncn3)sc21
2. O=C1NC2(CCCCC2)c2nc(Nc3cc(Nc4ccccn4)ncn3)sc21
3. Cc1cc(Nc2cc(Nc3ccc(N4CCN(C)CC4)cn3)ncn2)[n+]([O-])c2c1C(=O)NC21CCCCC1
4. CC(=O)N(C)c1ccnc(Nc2cc(Nc3nc4c(s3)C(=O)NC43CCCCC3)ncn2)c1
5. Cc1cc(Nc2cc(N[C@@H]3COC[C@H]3O)ncn2)[n+]([O-])c2c1C(=O)NC21CCCCC1 (relative stereo)

Outgoing:
["7.00 to 8.00", "7.00 to 8.00", "8.00 to 10.00", "7.00 to 8.00", "7.00 to 8.00"]

---

The following molecules have recorded pIC50 on MNK2 (Homo sapiens (Human), UniProt Q9HBH9).
pIC50: −log10 of the molar value.

Parameter requested: pIC50. Apply to each item below.
1. CN1CCN(c2ccc(Nc3cc(Nc4nc5c(s4)C(=O)NC54CCCCC4)ncn3)nc2)CC1
2. Cc1nc(Nc2cc(C)c3c([n+]2[O-])C2(CCCCC2)NC3=O)cc(N[C@H]2CCOC2)n1
3. Cc1ccc(Nc2cc(Nc3cc(C)c4c([n+]3[O-])C3(CCCCC3)NC4=O)ncn2)nc1
4. O=C1NC2(CCCCC2)c2cc(Nc3cc(NC4CCNC4)ncn3)sc21 (stereo not shown)
5. COc1c(N)ncnc1Nc1nc2c(s1)C(=O)NC21CCCCC1
6. Cc1cc(Nc2ncnc(Nc3ccccn3)c2C)[n+]([O-])c2c1C(=O)NC21CCCCC1
7. CCOC(=O)C1CCc2c(sc3ncnc(Nc4cc5c(s4)C(=O)NC54CCCCC4)c23)C1 (stereo not shown)

Outgoing:
["8.00 to 10.00", "7.00 to 8.00", "8.00 to 10.00", "6.00 to 7.00", "8.00 to 10.00", "< 6.00", "6.00 to 7.00"]

---

- Tested on: TMD-8 cell p-IF4E
- methodDescription: p-eIF4E Signaling Cellular Assay (CisBio HTRF) in TMD-8 cells
- Format: cell-based
- setupConditions: Homo sapiens, TMD8, 40 min, 40 min treatment
observationType: IC50

Check out these entries, answers already filled in.
>>> observedvalue("O=C1NC2(CCCCC2)c2nc(Nc3cc(Nc4ccc(N5CCOCC5)cn4)ncn3)sc21 [Compound XXVIII-Q]")
"0.1 to 10 nM"
>>> observedvalue("O=C1NC2(CCCCC2)c2cc(Nc3cc(NC(=O)C4CCOC4)ncn3)sc21 (stereo not shown) [Compound XXIV-I]")
"100 to 1000 nM"
>>> observedvalue("CCN1CCN(c2ccc(Nc3cc(Nc4cc(C)c5c([n+]4[O-])C4(CCCCC4)NC5=O)ncn3)nc2)CC1 [Compound XXIX-AAO]")
"0.1 to 10 nM"

Incoming: Give a short answer stating reported IC50 for O=C1NC2(CCCCC2)c2cc(Nc3cc(N[C@H]4CCOC4)ncn3)sc21 [Compound XXIV-C] .
Outgoing: 10 to 100 nM

---

What IC50 was measured for each of the following?
- testTarget: MNK2 (Homo sapiens (Human), UniProt Q9HBH9)

Check out these entries, answers already filled in.
>>> observedvalue("CN1CCN(c2cc(Nc3cc4c(s3)C(=O)NC43CCCCC3)ncn2)CC1")
"> 1 µM"
>>> observedvalue("Cc1cc(Nc2cc(Nc3ccn(C(C)C)n3)ncn2)[n+]([O-])c2c1C(=O)NC21CCCCC1")
"0.0001 to 0.01 µM"
>>> observedvalue("Nc1cc(Nc2cc3c(s2)C(=O)NC32CCCCC2)ncn1")
"0.01 to 0.1 µM"
>>> observedvalue("O=C1NC2(CCCCC2)c2cc(Nc3cc(NCC4CCCC4)ncn3)sc21")
"0.01 to 0.1 µM"
>>> observedvalue("Cc1cc(Nc2cc(N[C@H]3C[C@@](C)(O)C3)ncn2)[n+]([O-])c2c1C(=O)NC21CCCCC1")
"0.0001 to 0.01 µM"

Parameter requested: IC50. Apply to each item below.
1. O=C1NC2(CCCCC2)c2nc(Nc3ccnc(N[C@H]4CCOC4)c3)sc21
2. Cc1cc(Nc2cc(NCCO)ncn2)[n+]([O-])c2c1C(=O)NC21CCCCC1
3. O=C1NC2(CCCCC2)c2cc(Nc3ncnc4sccc34)sc21

Outgoing:
1: 0.0001 to 0.01 µM; 2: 0.01 to 0.1 µM; 3: 0.1 to 1 µM

---

The following molecules have recorded IC50 on MNK2 (Homo sapiens (Human), UniProt Q9HBH9).

>>> observedvalue("O=C1NC2(CCCCC2)c2cc(Nc3ncnc4sc5c(c34)CCCC5)sc21")
"10 to 100 nM"
>>> observedvalue("COCCCNc1cc(Nc2cc(C)c3c([n+]2[O-])C2(CCCCC2)NC3=O)ncn1")
"10 to 100 nM"
>>> observedvalue("Cc1cc(Nc2cc(Nc3ccccc3F)ncn2)[n+]([O-])c2c1C(=O)NC21CCCCC1")
"10 to 100 nM"

Incoming: Give a short answer stating reported IC50 for Cc1cc(Nc2cc(Nc3ccn(C(F)(F)F)n3)ncn2)[n+]([O-])c2c1C(=O)NC21CCCCC1 .
Outgoing: 0.1 to 10 nM

---

- System: TMD-8 cell p-IF4E
- methodDescription: p-eIF4E Signaling Cellular Assay (CisBio HTRF) in TMD-8 cells
- Type: cell-based
- setupConditions: Homo sapiens, TMD8, 40 min, 40 min treatment
Structures can show the parent of a compound that is named as a salt.
observationType: IC50

Check out these entries, answers already filled in.
>>> observedvalue("Cn1ccc(Nc2cc(Nc3nc4c(s3)C(=O)NC43CCCCC3)ncn2)n1")
"0.1 to 10 nM"
>>> observedvalue("CC(=O)N(C)c1cccc(Nc2cc(Nc3cc(C)c4c([n+]3[O-])C3(CCCCC3)NC4=O)ncn2)n1")
"0.1 to 10 nM"
>>> observedvalue("O=C1NC2(CCCCC2)c2cc(Nc3ncnc4[nH]c(C5CC5)cc34)sc21")
"0.1 to 10 nM"
>>> observedvalue("CN(C)[C@H]1CCN(C(=O)C2CCc3c(sc4ncnc(Nc5cc6c(s5)C(=O)NC65CCCCC5)c34)C2)C1 (stereo partly shown)")
"100 to 1000 nM"
>>> observedvalue("O=C1NC2(CCCCC2)c2cc(Nc3cc(NC4CCCC4)ncn3)sc21")
"10 to 100 nM"
>>> observedvalue("O=C1NC2(CCCCC2)c2cc(Nc3cc(Nc4cc[nH]n4)ncn3)sc21")
"10 to 100 nM"
>>> observedvalue("O=C1NC2(CCCCC2)c2nc(Nc3ncnc4[nH]ccc34)sc21")
"0.1 to 10 nM"
>>> observedvalue("O=C1NC2(CCCCC2)c2nc(Nc3ccnc(N[C@H]4CCOC4)c3)sc21")
"10 to 100 nM"
>>> observedvalue("Cc1cc(Nc2cc(Nc3ccn(CCO)n3)ncn2)[n+]([O-])c2c1C(=O)NC21CCCCC1")
"0.1 to 10 nM"
>>> observedvalue("Cn1cnc(Nc2cc(Nc3cc4c(s3)C(=O)NC43CCCCC3)ncn2)c1")
"100 to 1000 nM"

Parameter requested: IC50. Apply to each item below.
1. CN1CCN(c2ccc(Nc3cc(Nc4cc5c(s4)C(=O)NC54CCCCC4)ncn3)nc2)CC1
2. O=C1NC2(CCCCC2)c2nc(Nc3cc(N[C@H]4CCOC4)ncn3)sc21

Outgoing:
["10 to 100 nM", "10 to 100 nM"]

Parameter requested: IC50. Apply to each item below.
1. O=C1NC2(CCCCC2)c2cc(Nc3cc(NC4CCOC4)ncn3)sc21 (stereo not shown)
2. Cc1cc2c(Nc3cc4c(s3)C(=O)NC43CCCCC3)ncnc2[nH]1
3. Cc1cc(Nc2cc(N[C@H]3CCOC3)ncn2)[n+]([O-])c2c1C(=O)NC21CCCCC1

Outgoing:
1: 10 to 100 nM; 2: 10 to 100 nM; 3: 0.1 to 10 nM

Parameter requested: IC50. Apply to each item below.
1. Cn1cc(Nc2cc(Nc3cc4c(s3)C(=O)NC43CCCCC3)ncn2)cn1
2. O=C1NC2(CCCCC2)c2cc(Nc3ncnc4[nH]ccc34)sc21
3. Cc1cc(Nc2cc(Nc3ccc(N4CCN(CCO)CC4)cn3)ncn2)[n+]([O-])c2c1C(=O)NC21CCCCC1 [Compound XXIX-AAP, formate salt]
4. CN1CCN(c2ccc(Nc3cc(Nc4nc5c(s4)C(=O)NC54CCCCC4)ncn3)nc2)CC1
5. Cc1cc(Nc2cc(Nc3ccc(N4C[C@@H](C)N[C@@H](C)C4)cn3)ncn2)[n+]([O-])c2c1C(=O)NC21CCCCC1
6. Cc1cc(Nc2cc(Nc3ccccn3)ncn2)[n+]([O-])c2c1C(=O)NC21CCCCC1
7. Cc1cc(Nc2cc(Nc3ccon3)ncn2)[n+]([O-])c2c1C(=O)NC21CCCCC1

Outgoing:
1. 100 to 1000 nM
2. 10 to 100 nM
3. 0.1 to 10 nM
4. 0.1 to 10 nM
5. 0.1 to 10 nM
6. 0.1 to 10 nM
7. 0.1 to 10 nM

Parameter requested: IC50. Apply to each item below.
1. Cc1cc(Nc2cc(Nc3cccc(CO)n3)ncn2)[n+]([O-])c2c1C(=O)NC21CCCCC1 [Compound XXIX-AU, formate salt]
2. Cn1cnc(Nc2cc(Nc3nc4c(s3)C(=O)NC43CCCCC3)ncn2)n1
3. O=C1NC2(CCCCC2)c2cc(Nc3ncnc4[nH]ncc34)sc21
4. Cc1cc(Nc2cc(Nc3ncn(C)n3)ncn2)[n+]([O-])c2c1C(=O)NC21CCCCC1
5. COc1c(N)ncnc1Nc1cc(C)c2c([n+]1[O-])C1(CCCCC1)NC2=O

Outgoing:
0.1 to 10 nM
10 to 100 nM
100 to 1000 nM
10 to 100 nM
0.1 to 10 nM

Parameter requested: IC50. Apply to each item below.
1. Cc1cc(Nc2cc(Nc3ccn(C(C)C)n3)ncn2)[n+]([O-])c2c1C(=O)NC21CCCCC1
2. O=C1NC2(CCCCC2)c2cc(Nc3cc(Nc4ccccn4)ncn3)sc21

Outgoing:
["0.1 to 10 nM", "10 to 100 nM"]

Parameter requested: IC50. Apply to each item below.
1. C[C@@H]1COCCN1C(=O)C1CCc2c(sc3ncnc(Nc4cc5c(s4)C(=O)NC54CCCCC4)c23)C1 (stereo partly shown)
2. CNC(=O)Nc1cc(Nc2nc3c(s2)C(=O)NC32CCCCC2)ncn1

Outgoing:
100 to 1000 nM
100 to 1000 nM
